system: ICS; experiment: qHTS profiling for inhibitors of Plasmodium falciparum proliferation (AID 504749); also: nearly all actives have a fitted effect of over 60% in size; settings: P. falciparum in erythrocytes, SYBR Green DNA, 72 h; series mostly up to 12.8 µM
Inconclusive results are not listed. Activity calls are given as the source filed them. Calls follow the shape of the dose curve; as a rule, active = well fitted inhibition curve with a large enough effect; inconclusive = small, poorly fitted or top-dose-only effect; inactive = flat fitted curve, though single readings scatter. Bridge positions count the residues as written; N and C are the ends. Square brackets hold non-standard residues; d marks the D form. Peptide text beside a SMILES is read from it. * marks the point of attachment. Ileψ(thiazoline)Cys = CC[C@H](C)[C@H](N)C1=N[C@H](C(=O)*)CS1; d(aIle) = CC[C@H](C)[C@@H](N)C(=O)O; dOrn = NCCC[C@@H](N)C(=O)O
Labels: 1.0 = active, 0.0 = inactive

molecule: COCC(=O)Nc1c(I)c(C(=O)NC[C@@H](O)CO)c(I)c(C(=O)N(C)C[C@@H](O)CO)c1I
group: 0.0
--
molecule: COc1cc(N[C@@H](C)CCCN)c2ncccc2c1
group: 1.0
--
molecule: CCC[C@@H]1O[C@@H]2C[C@@H]3[C@H]4CCC5=CC(=O)C=C[C@@]5(C)[C@H]4[C@H](O)C[C@@]3(C)[C@@]2(C(=O)CO)O1
group: 1.0
--
molecule: CC(C)C1CCC(C(=O)NC(Cc2ccccc2)C(=O)O)CC1 (stereo not drawn)
group: 0.0
--
molecule: CC1CCC(C(C)C)C(=O)C1 (stereo not drawn)
group: 0.0
--
molecule: CCOC(=O)O[C@]1(C(=O)COC(=O)CC)CC[C@@H]2[C@@H]3CCC4=CC(=O)C=C[C@@]4(C)[C@H]3[C@H](O)C[C@]21C
group: 0.0
--
molecule: C#C[C@]1(O)CC[C@@H]2[C@H]3CCC4=CCCC[C@@H]4[C@@H]3CC[C@@]21C
group: 0.0
--
molecule: CC(=C(CCOP(=O)(O)O)SC(=O)c1ccccc1)N(C=O)Cc1cnc(C)nc1N
group: 0.0
--
molecule: O=C(O)[C@@H]1CCCN1
group: 0.0
--
molecule: CCCC[C@H](CC)CN1CN(C[C@@H](CC)CCCC)CC(C)(N)C1
group: 1.0
--
molecule: CC(=O)N[C@H](CC(C)C)C(=O)O
group: 0.0
--
molecule: C[C@@]12CC[C@H]3[C@@H](CCC4=CC(=O)CC[C@]43C)[C@H]1CC[C@H]2C(=O)CO
group: 1.0
--
molecule: C=Cc1c(C)c2cc3nc(cc4[nH]c(cc5nc(cc1[nH]2)C(C)=C5CCC(=O)O)c(CCC(=O)OC)c4C)[C@@]1(C)C3=CC=C(C(=O)OC)[C@H]1C(=O)OC (tested in a mixture with another compound)
group: 1.0
--
molecule: COC(=O)C1=C(C)NC(C)=C(C(=O)OC(C)C)[C@H]1c1cccc2nonc12
group: 1.0
--
molecule: COC(=O)N/N=C/C1=C[N+](=O)c2ccccc2[N+]1=O
group: 0.0
--
molecule: CC[C@H](CO)NCCN[C@@H](CC)CO
group: 0.0
--
molecule: Cc1cccc(C)c1NC(=O)[C@H](C)N
group: 0.0
--
molecule: C[C@H](C(=O)O)c1cccc(Oc2ccccc2)c1
group: 0.0
--
molecule: CC1C2CCC3C4CC=C5CC(N(C)C)CC[C@@]5(C)C4CC[C@@]32CN1C (stereo partly drawn)
group: 0.0
--
molecule: CC[C@H](C)[C@H](N)C1=N[C@H](C(=O)N[C@@H](CC(C)C)C(=O)N[C@@H](CCC(=O)O)C(=O)N[C@@H](C(=O)N[C@H]2CCCCNC(=O)[C@@H](CC(N)=O)NC(=O)[C@@H](CC(=O)O)NC(=O)[C@@H](Cc3cnc[nH]3)NC(=O)[C@@H](Cc3ccccc3)NC(=O)[C@@H]([C@@H](C)CC)NC(=O)[C@@H](CCCN)NC2=O)[C@@H](C)CC)CS1 ({Ileψ(thiazoline)Cys}-LE[d(aIle)]K[dOrn][d(aIle)][dF][dH][dD][dN]; lactam 4-C)
group: 0.0
--
molecule: NC(=O)N[C@H]1NC(=O)NC1=O
group: 0.0
--
molecule: CC[C@@H]1OC(=O)[C@H](C)[C@H](O[C@@H]2C[C@](C)(OC)[C@H](O)[C@H](C)O2)[C@H](C)[C@H](O[C@@H]2O[C@@H](C)C[C@@H](N(C)C)[C@@H]2O)[C@](C)(O)C[C@H](C)C(=NOCOCCOC)[C@H](C)[C@H](O)[C@]1(C)O
group: 0.0
--
molecule: COc1c(O[C@H]2O[C@@H](CO)[C@@H](O)[C@@H](O)[C@@H]2O)cc2c(c1OC)-c1ccc(SC)c(=O)cc1[C@H](NC(C)=O)CC2
group: 0.0
--
molecule: CN[C@H]1[C@H](O)[C@@H](O[C@@H]2[C@H](O)[C@@H](O[C@H]3OC(CN)=CC[C@H]3N)[C@@H](N)C[C@H]2N)OC[C@@]1(C)O
group: 0.0
--
molecule: NC[C@@H]1O[C@@H](O[C@H]2[C@H](O)[C@H](O[C@@H]3O[C@H](CO)[C@@H](O)[C@H](N)[C@@H]3O)[C@@H](N)C[C@H]2N)[C@H](N)C[C@@H]1O
group: 0.0
--
molecule: CN(C)CCn1nnnc1SCC1=C(C(=O)O)N2C(=O)[C@@H](NC(=O)Cc3csc(N)n3)[C@@H]2SC1
group: 1.0
--
molecule: COc1ccc(C[C@@](C)(N)C(=O)O)cc1OC
group: 0.0
--
molecule: CC[C@H](Cc1c(I)cc(I)c(N)c1I)C(=O)O
group: 0.0
